biological target: GST-SBP-SLBP (stem-loop binding protein) (Homo sapiens, UniProt Q14493 1-270); experiment: targeted RNA Bind-n-Seq; RBNS binding buffer: 25 mM Tris pH 7.5, 150 mM KCl, 3 mM MgCl2, 0.1% Tween, 0.5 mg/mL BSA, 1 mM DTT; 27 nM protein, 750 pM RNA pool; temperature not stated; high values mean tight binding; conditions: protein: recombinant; tags: N-terminal GST and SBP (pGEX6P1-SBP); structured_RNA
The full ranking holds about 11,000 sequences; the median of “log2 fold change” is about 0.00022, and the highest 2% start at about 0.34. The list shows a part of the results.
Hi there, I'd appreciate the recorded binding signal for every entry that follows.
Answer with the value and then the unit.

macromolecule_sequence=GGUCACGUCUCAAUCAACUCAUCUUCAGGAGUUUACUCCUGCUUAGUCAACAGCUCGCAGUCAAG result="0.342 log2 fold change"
macromolecule_sequence=GGUCACGUCUCAAUCAACUCAUCCUCAGGAGUUUACUCCUGCUUACUCAACAGCUCGCAGUCAAG result="0.315 log2 fold change"
macromolecule_sequence=GGUCACGUCUCAAUCAACUCAAUCUCCAGGGAAAGCCCUGGCAAUGUCAACAGCUCGCAGUCAAG result="0.309 log2 fold change"

Could you now consider this next sequence?
Input: GST-SBP-SLBP (stem-loop binding protein) (Homo sapiens, UniProt Q14493 1-270) / binding signal / GGUCACGUCUCAAUCAACUCAGUUUCCAGGGAAAACCCUGGCUUUCUCAACAGCUCGCAGUCAAG : value?
Output: 0.31 log2 fold change

* * *

molecular target: GST-SBP-SLBP (stem-loop binding protein) (Homo sapiens, UniProt Q14493 1-270); experiment: targeted RNA Bind-n-Seq; RBNS binding buffer: 25 mM Tris pH 7.5, 150 mM KCl, 3 mM MgCl2, 0.1% Tween, 0.5 mg/mL BSA, 1 mM DTT; 27 nM protein, 750 pM RNA pool; temperature not stated; high values mean tight binding; details: protein: recombinant; tags: N-terminal GST and SBP (pGEX6P1-SBP); structured_RNA
The full ranking holds about 11,000 sequences; the median of “log2 fold change” is about 0.00022, and the highest 2% start at about 0.34. The list shows a part of the results.
Assign binding signal to each entry below.
Give bare numbers, in log2 fold change.

Here are 3 sequences together with their reported answers.
macromolecule_sequence=GGUCACGUCUCAAUCAACUCAUCUCCCAGGGAAAACCCUGGUAUAUUCAACAGCUCGCAGUCAAG quantity_kind="binding signal" quantitative_readout=0.374
macromolecule_sequence=GGUCACGUCUCAAUCAACUCUUUUUCCAGGGAAACCCCUGGCAUACUCAACAGCUCGCAGUCAAG quantity_kind="binding signal" quantitative_readout=0.44
macromolecule_sequence=GGUCACGUCUCAAUCAACUCUAAAGAGGGGGGGAAAACCCCUUUGCCCUCACUAUCAACAGCUCGCAGUCAAG quantity_kind="binding signal" quantitative_readout=0.331

Consider the following items and state reported binding signal for each.
1. GGUCACGUCUCAAUCAACUCUAAAGAGGGGGGGAAAACCCCUUUGCCCUCACUUUCAACAGCUCGCAGUCAAG
2. GGUCACGUCUCAAUCAACUCAGGUCCAGGAGUUUACUCCUGCAAAUUCAACAGCUCGCAGUCAAG
3. GGUCACGUCUCAAUCAACUCAUCGCCAGGAGUUUACUCCUGCUAAUUCAACAGCUCGCAGUCAAG
4. GGUCACGUCUCAAUCAACUCUAGUCCAGGAGUUUACUCCUGUUUAUUCAACAGCUCGCAGUCAAG
5. GGUCACGUCUCAAUCAACUCAUGUCCAGGAGUUUACUCCUGCAAUCUCAACAGCUCGCAGUCAAG

Output:
1: 0.415; 2: 0.356; 3: 0.301; 4: 0.313; 5: 0.371

Lab note: each sequence below needs its binding signal filled in.
1. GGUCACGUCUCAAUCAACUCAAUCCCAGGAGUUUUCUCCUGUAAAGUCAACAGCUCGCAGUCAAG
2. GGUCACGUCUCAAUCAACUCAUCGUCAGGAGUUUACUCCUGCUAACUCAACAGCUCGCAGUCAAG
3. GGUCACGUCUCAAUCAACUCUUCUUCCAGGGAAAUCCCUGGCAUACUCAACAGCUCGCAGUCAAG
4. GGUCACGUCUCAAUCAACUCAUUCCCAGGAGUUUACUCCUGUAAUUUCAACAGCUCGCAGUCAAG
5. GGUCACGUCUCAAUCAACUCAAUCCCCAGGGAAAACCCUGGCUAUUUCAACAGCUCGCAGUCAAG
6. GGUCACGUCUCAAUCAACUCAGGUCCAGGAGUUUACUCCUGCAAUUUCAACAGCUCGCAGUCAAG
7. GGUCACGUCUCAAUCAACUCAUCUUCAGGAGUUUGCUCCUGCAAUCUCAACAGCUCGCAGUCAAG
8. GGUCACGUCUCAAUCAACUCCUAAGAGGGGGGGAAAACCCCUUUGCCCUCACUUUCAACAGCUCGCAGUCAAG

Output:
[0.317, 0.304, 0.399, 0.331, 0.338, 0.516, 0.328, 0.38]

Input: # binding signal lookup, item GGUCACGUCUCAAUCAACUCAAUCUCAGGAGUUUACUCCUGCAAAGUCAACAGCUCGCAGUCAAG
Output: 0.321

Attribution: paper PMC5892938
